Assay: AUC (0 to 6 hrs) in rat at 10 mg/kg, po
Type: ADME, organism-based
Set-up: time < 6 hr, dose 10 mg/kg, route oral
Conditions: plasma
I would appreciate it if you labelled entries satisfied when AUC(0-t) at 6 h is 5 µM·h or higher, otherwise not satisfied.

Some entries whose results are on file:
Quick check: does `Cc1nc(NCc2cccnc2)nc(N[C@@H]2C[C@H](CO)[C@@H](O)[C@H]2O)c1-c1nc2ccccc2s1` have AUC(0-t) at 6 h greater than or equal to 5 µM·h?
not satisfied

Entry `Cc1nc(NCCOC(C)C)nc(N[C@@H]2C[C@H](CO)[C@@H](O)[C@H]2O)c1-c1nc2ccccc2s1` : is its AUC(0-t) at 6 h no less than 5 µM·h?
not satisfied

# check: AUC(0-t) at 6 h of `Cc1nc(NCCC(F)(F)F)nc(N[C@@H]2C[C@H](CO)[C@@H](O)[C@H]2O)c1-c1nc2ccccc2s1` is greater than or equal to 5 µM·h
satisfied

Decide: AUC(0-t) at 6 h of `OC[C@H]1C[C@@H](Nc2nc(NCC(F)(F)F)nc(C3CC3)c2-c2nc3ccccc3s2)[C@H](O)[C@@H]1O` >= 5 µM·h?
satisfied

Is AUC(0-t) at 6 h for `CCOC(=O)NCCNc1nc(C)c(-c2nc3ccccc3s2)c(N[C@@H]2C[C@H](CO)[C@@H](O)[C@H]2O)n1` at or above 5 µM·h?
not satisfied

New cases:
Evaluate `CCOCCNc1nc(C)c(-c2nc3ccccc3s2)c(N[C@@H]2C[C@H](CO)[C@@H](O)[C@H]2O)n1` : AUC(0-t) at 6 h at minimum 5 µM·h?
not satisfied

Evaluate `Cc1nc(Nc2ccccc2)nc(N[C@@H]2C[C@H](CO)[C@@H](O)[C@H]2O)c1-c1nc2ccccc2s1` : AUC(0-t) at 6 h at minimum 5 µM·h?
not satisfied

meta.source: ChEMBL document CHEMBL2016455
